protocol.details: AUC (0 to infinity) in C57Bl mouse brain at 10 mg/kg, po
Assay type: ADME, organism-based
Set-up: time infinity, dose 10 mg/kg, route oral
measured.quantity: AUC(0-inf) (ng·h/mL)
Your answer is read as ng·h/mL, so omit the unit and give the number.

Ask | Value lookup for AUC(0-inf); key = NS(=O)(=O)c1ccc(N2CCN=C2c2ccc(Cl)c(Cl)c2)cc1
Reply | 525

====

target.system: Prostaglandin G/H synthase 2 (Homo sapiens, UniProt P35354)
Sequence (P35354 whole entry): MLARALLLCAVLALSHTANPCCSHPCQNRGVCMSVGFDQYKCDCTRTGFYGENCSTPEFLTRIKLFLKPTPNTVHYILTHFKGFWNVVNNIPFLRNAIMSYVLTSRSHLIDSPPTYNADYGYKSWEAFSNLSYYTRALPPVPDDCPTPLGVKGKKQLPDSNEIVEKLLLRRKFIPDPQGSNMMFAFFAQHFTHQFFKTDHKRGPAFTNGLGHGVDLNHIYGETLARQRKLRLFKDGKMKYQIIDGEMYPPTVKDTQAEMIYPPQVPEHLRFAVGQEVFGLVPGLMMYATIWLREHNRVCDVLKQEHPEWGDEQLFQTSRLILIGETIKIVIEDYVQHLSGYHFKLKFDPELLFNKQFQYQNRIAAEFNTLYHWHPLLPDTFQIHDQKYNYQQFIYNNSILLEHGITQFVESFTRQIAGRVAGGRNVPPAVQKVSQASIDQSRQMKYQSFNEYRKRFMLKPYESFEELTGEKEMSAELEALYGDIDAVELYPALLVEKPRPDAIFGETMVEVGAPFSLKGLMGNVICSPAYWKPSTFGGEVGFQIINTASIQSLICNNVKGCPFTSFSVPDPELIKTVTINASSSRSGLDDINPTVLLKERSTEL
protocol.details: Inhibition of human recombinant COX2 using fluorometric substrate by fluorescent inhibitor screening assay
measured.quantity: IC50 (µM)
Your answer is read as µM, so omit the unit and give the number.

| chemical.smiles | measured |
| --- | --- |
| COc1ccc(C2=NCCN2c2ccc(S(N)(=O)=O)cc2)cc1F | 9.5 |

Ask | Value lookup for IC50; key = NS(=O)(=O)c1ccc(N2CCN=C2c2ccc(Cl)c(C(F)(F)F)c2)cc1
Reply | 1.8

Ask | Again, but for CS(=O)(=O)c1ccc(N2CCN=C2c2ccc(Cl)cc2)cc1
Reply | 7.1

====

target.system: Prostaglandin G/H synthase 2 (Homo sapiens, UniProt P35354)
Sequence (P35354 whole entry): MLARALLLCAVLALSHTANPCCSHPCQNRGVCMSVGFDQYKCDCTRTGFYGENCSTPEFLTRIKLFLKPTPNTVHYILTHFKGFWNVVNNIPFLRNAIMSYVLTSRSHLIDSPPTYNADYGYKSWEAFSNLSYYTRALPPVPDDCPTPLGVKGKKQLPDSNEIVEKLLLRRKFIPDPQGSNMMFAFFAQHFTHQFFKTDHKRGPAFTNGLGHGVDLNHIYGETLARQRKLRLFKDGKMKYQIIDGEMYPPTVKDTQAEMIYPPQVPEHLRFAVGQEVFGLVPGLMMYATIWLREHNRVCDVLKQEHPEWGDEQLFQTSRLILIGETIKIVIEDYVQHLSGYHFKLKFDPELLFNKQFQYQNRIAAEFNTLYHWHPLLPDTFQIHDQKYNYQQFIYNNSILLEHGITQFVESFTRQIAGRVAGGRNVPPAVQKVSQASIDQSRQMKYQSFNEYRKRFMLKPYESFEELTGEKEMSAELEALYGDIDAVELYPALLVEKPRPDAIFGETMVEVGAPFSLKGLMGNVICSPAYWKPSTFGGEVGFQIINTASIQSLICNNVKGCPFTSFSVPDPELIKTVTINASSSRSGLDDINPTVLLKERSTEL
protocol.details: Inhibition of human recombinant COX2 using fluorometric substrate by fluorescent inhibitor screening assay
measured.quantity: IC50

Example cases with answers are listed next.
| compound | IC50 |
| --- | --- |
| Cc1cccc(C2=NCCN2c2ccc(S(C)(=O)=O)cc2)c1 | > 10 µM |
| COc1cc(C2=NCCN2c2ccc(S(N)(=O)=O)cc2)ccc1F | > 10 µM |
| Cc1cccc(C2=NCCN2c2ccc(S(N)(=O)=O)cc2)c1 | > 10 µM |

Ask | Value lookup for IC50; key = NS(=O)(=O)c1ccc(N2CCN=C2c2cccc(Cl)c2)cc1
Reply | 2.5 µM

Ask | Again, but for CC1CN(c2ccc(S(C)(=O)=O)cc2)C(c2ccc(F)cc2)=N1 (racemic)
Reply | > 10 µM

Ask | Again, but for COc1cc(C2=NCCN2c2ccc(S(C)(=O)=O)cc2)ccc1F
Reply | > 10 µM

Ask | Again, but for NS(=O)(=O)c1ccc(N2CCN=C2c2ccc(F)c(F)c2)cc1
Reply | 6.7 µM

Ask | Again, but for COc1ccc(C2=NCCN2c2ccc(S(N)(=O)=O)cc2)cc1Cl
Reply | 6.2 µM
